system: BALB/C mice; assay: In vivo imaging of Fluc-mRNA LNP expression in mice; settings: 6 h; 5 μg Fluc-mRNA LNP intramuscular, mice

| molecule | Total radiation intensity |
| --- | --- |
| COC[C@@H]1[C@H](OP(=O)(O)OC[C@H]2O[C@@H](n3cnc4c(=O)[nH]c(N)nc43)[C@H](O)[C@@H]2O)[C@@H](COP(=O)(O)OP(=O)(O)OP(=O)(O)OC[C@H]2O[C@@H]([n+]3cn(C)c4c(=O)[nH]c(N)nc43)[C@H](O)[C@@H]2O)O[C@H]1n1cnc2c(N)ncnc21 [YK-CAP-113] | 6.07 ×108 p/s |
| CCN(CC)C(=O)[C@H]1[C@@H](O)[C@H]([n+]2cn(C)c3c(=O)[nH]c(N)nc32)O[C@@H]1COP(=O)(O)OP(=O)(O)OP(=O)(O)OC[C@H]1O[C@@H](n2cnc3c(N)ncnc32)[C@H](OC)[C@@H]1OP(=O)(O)OC[C@H]1O[C@@H](n2cnc3c(=O)[nH]c(N)nc32)[C@H](O)[C@@H]1O [YK-CAP-111] | 8.61 ×108 p/s |
| CO[C@@H]1[C@H](OP(=O)(O)OC[C@H]2O[C@@H](n3cnc4c(=O)[nH]c(N)nc43)[C@H](O)[C@@H]2O)[C@@H](COP(=O)(O)OP(=O)(O)OP(=O)(O)OC[C@H]2O[C@@H]([n+]3cn(C)c4c(=O)[nH]c(N)nc43)[C@H](O)[C@]2(C)NC(C)=O)O[C@H]1n1cnc2c(N)ncnc21 [YK-CAP-106] | 5.88 ×108 p/s |
| CO[C@@H]1[C@H](OP(=O)(O)OC[C@H]2O[C@@H](n3cnc4c(=O)[nH]c(N)nc43)[C@H](O)[C@@H]2O)[C@@H](COP(=O)(O)OP(=O)(O)OP(=O)(O)OC[C@H]2O[C@@H]([n+]3cn(C)c4c(=O)[nH]c(N)nc43)[C@H](O)[C@@H]2O)O[C@H]1n1cnc2c(N)ncnc21 [N-7113, reference compound] | 5.10 ×108 p/s |
| CO[C@@H]1[C@H](OP(=O)(O)OC[C@H]2O[C@@H](n3cnc4c(=O)[nH]c(N)nc43)[C@H](O)[C@@H]2O)[C@@H](COP(=O)(O)OP(=O)(O)OP(=O)(O)OC[C@H]2O[C@@H]([n+]3cn(C)c4c(=O)[nH]c(N)nc43)[C@H](O)[C@@H]2C(F)F)O[C@H]1n1cnc2c(N)ncnc21 [YK-CAP-110] | 9.52 ×108 p/s |
| CO[C@@H]1[C@H](OP(=O)(O)OC[C@H]2O[C@@H](n3cnc4c(=O)[nH]c(N)nc43)[C@H](O)[C@@H]2O)[C@@H](COP(=O)(O)OP(=O)(O)OP(=O)(O)OC[C@@]2(OC)O[C@@H]([n+]3cn(C)c4c(=O)[nH]c(N)nc43)[C@H](O)[C@@H]2O)O[C@H]1n1cnc2c(N)ncnc21 [compound 5227, reference compound] | 2.38 ×108 p/s |
| CO[C@@H]1[C@H](OP(=O)(O)OC[C@H]2O[C@@H](n3cnc4c(=O)[nH]c(N)nc43)[C@H](O)[C@@H]2O)[C@@H](COP(=O)(O)OP(=O)(O)OP(=O)(O)OC[C@H]2O[C@@H]([n+]3cn(C)c4c(=O)[nH]c(N)nc43)[C@H](O)[C@@H]2C(C)F)O[C@H]1n1cnc2c(N)ncnc21 (stereo partly shown) [YK-CAP-109] | 6.04 ×108 p/s |

FYI, the data here is from patent US12576099B2.
